ASSAY CONDITIONS: 343.15 K; 101.33 kPa; Liquid; Pulse-echo method
ASSAY METRIC: speed of sound (m/s)

>  <COMPOUND>
CCCC[N+]1(CC)CCCC1.CCOS(=O)(=O)[O-] [1-butyl-1-ethylpyrrolidinium ethyl sulfate]

>  <ASSAY METRIC>
speed of sound

>  <TEST VALUE>
1564.9

$$$$
>  <COMPOUND>
CC[N+](C)(CC)CC.COS(=O)(=O)[O-] [N,N-diethyl-N-methylethanaminium methyl sulfate]

>  <ASSAY METRIC>
speed of sound

>  <TEST VALUE>
1761.5

$$$$
>  <COMPOUND>
CCCC[N+]1(C)CCCC1.COS(=O)(=O)[O-] [1-butyl-1-methylpyrrolidinium methyl sulfate]

>  <ASSAY METRIC>
speed of sound

>  <TEST VALUE>
1625.5

$$$$
>  <COMPOUND>
CCOS(=O)(=O)[O-].CC[N+]1(C)CCCC1 [1-ethyl-1-methylpyrrolidinium ethyl sulfate]

>  <ASSAY METRIC>
speed of sound

>  <TEST VALUE>
1665.7

$$$$

====

ASSAY CONDITIONS: 343.15 K; 101.33 kPa; Liquid; Capillary tube (Ostwald / Ubbelohde) method
ASSAY METRIC: viscosity (mPa·s)

>  <MOLECULE>
CCCC[N+]1(CC)CCCC1.CCOS(=O)(=O)[O-] [1-butyl-1-ethylpyrrolidinium ethyl sulfate]

>  <ENDPOINT UNIT>
mPa·s

>  <viscosity>
55.8

$$$$
>  <MOLECULE>
CC[N+](C)(CC)CC.COS(=O)(=O)[O-] [N,N-diethyl-N-methylethanaminium methyl sulfate]

>  <ENDPOINT UNIT>
mPa·s

>  <viscosity>
44.92

$$$$
>  <MOLECULE>
CCOS(=O)(=O)[O-].CC[N+]1(C)CCCC1 [1-ethyl-1-methylpyrrolidinium ethyl sulfate]

>  <ENDPOINT UNIT>
mPa·s

>  <viscosity>
42

$$$$
>  <MOLECULE>
CCCC[N+]1(C)CCCC1.COS(=O)(=O)[O-] [1-butyl-1-methylpyrrolidinium methyl sulfate]

>  <ENDPOINT UNIT>
mPa·s

>  <viscosity>
46.6

$$$$

====

ASSAY CONDITIONS: 343.15 K; 101.33 kPa; Liquid; Vibrating tube method
ASSAY METRIC: mass density (kg/m3)

>  <COMPOUND>
CCOS(=O)(=O)[O-].CC[N+]1(C)CCCC1 [1-ethyl-1-methylpyrrolidinium ethyl sulfate]

>  <mass density, kg/m3>
1168.07

$$$$
>  <COMPOUND>
CC[N+](C)(CC)CC.COS(=O)(=O)[O-] [N,N-diethyl-N-methylethanaminium methyl sulfate]

>  <mass density, kg/m3>
1145.36

$$$$
>  <COMPOUND>
CCCC[N+]1(CC)CCCC1.CCOS(=O)(=O)[O-] [1-butyl-1-ethylpyrrolidinium ethyl sulfate]

>  <mass density, kg/m3>
1110.08

$$$$
>  <COMPOUND>
CCCC[N+]1(C)CCCC1.COS(=O)(=O)[O-] [1-butyl-1-methylpyrrolidinium methyl sulfate]

>  <mass density, kg/m3>
1139.47

$$$$

====

ASSAY CONDITIONS: 328.15 K; 101.33 kPa; Liquid; Pulse-echo method
ASSAY METRIC: speed of sound (m/s)

>  <COMPOUND>
CCOS(=O)(=O)[O-].CC[N+]1(C)CCCC1 [1-ethyl-1-methylpyrrolidinium ethyl sulfate]

>  <speed of sound, m/s>
1701

$$$$
>  <COMPOUND>
CCCC[N+]1(CC)CCCC1.CCOS(=O)(=O)[O-] [1-butyl-1-ethylpyrrolidinium ethyl sulfate]

>  <speed of sound, m/s>
1602

$$$$
>  <COMPOUND>
CC[N+](C)(CC)CC.COS(=O)(=O)[O-] [N,N-diethyl-N-methylethanaminium methyl sulfate]

>  <speed of sound, m/s>
1800

$$$$
>  <COMPOUND>
CCCC[N+]1(C)CCCC1.COS(=O)(=O)[O-] [1-butyl-1-methylpyrrolidinium methyl sulfate]

>  <speed of sound, m/s>
1662.2

$$$$
